System: MDRPA
protocol-notes: MIC determination, microdilution broth method;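 further: broth microdilution per NCCLS recommendations, testing Pithecellobium clypearia water or ethanol extracts against multidrug-resistant Pseudomonas aeruginosa, with MIC50 and MIC90 derived statistically from individual MICs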
measurement-conditions: Pseudomonas aeruginosa, read-out: MIC (single use), strain P5; EA=P. clypearia 10% ethanol extract
Reported MIC is given for each of the following compounds.

| smiles-representation | MIC / µg/mL |
| --- | --- |
| CCN1CCN(C(=O)N[C@@H](C(=O)N[C@@H]2C(=O)N3C(C(=O)O)=C(CSc4nnnn4C)CS[C@H]23)c2ccc(O)cc2)C(=O)C1=O | 512 |
| CC(C)(O/N=C(\C(=O)N[C@@H]1C(=O)N2C(C(=O)[O-])=C(C[n+]3ccccc3)CS[C@H]12)c1csc(N)n1)C(=O)O | 64 |
| NCC[C@H](O)C(=O)N[C@@H]1C[C@H](N)[C@@H](O[C@H]2O[C@H](CN)[C@@H](O)[C@H](O)[C@H]2O)[C@H](O)[C@H]1O[C@H]1O[C@H](CO)[C@@H](O)[C@H](N)[C@H]1O | 2 |
| C[C@@H](O)[C@H]1C(=O)N2C(C(=O)O)=C(SCCN=CN)C[C@H]12 | 64 |
| C[C@H]1COc2c(N3CCN(C)CC3)c(F)cc3c(=O)c(C(=O)O)cn1c23 | 1 |
